- measurement-notes: APR_HepG2_CellLoss_24hr: Apredica 24-hour HepG2 Assay for Cell Loss (AID 2282908);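 as to AC50: fit in both directions so a hit may be cell loss or gain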
- conditions: high-content imaging
Active and inactive are the calls of the source. The calls were made as follows: active = hit-call score of the fitted dose curve at least 0.9, where 1 is the maximum; inactive = score below 0.9.
property-label: AC50

Here is how some compounds turned out for AC50.
compound: CO[C@@H]1[C@H](OC(=O)NC(=O)CCl)CC[C@]2(CO2)[C@H]1[C@@]1(C)O[C@@H]1CC=C(C)C
AC50: inactive

compound: O=[N+]([O-])C(Br)(CO)CO
AC50: 25.6 µM (active)

compound: [O-][Cl+]O
AC50: 70.7 µM (active)

compound: C[N+](C)(C)CC1CO1 (stereo not drawn)
AC50: inactive

compound: CCCCOC(=O)c1ccccc1C(=O)OCc1ccccc1
AC50: 48.5 µM (active)

compound: CC(C)COC(=O)c1ccccc1C(=O)OCC(C)C
AC50: 87 µM (active)

compound: CCN(CC)N=O
AC50: inactive

compound: N#CC(Br)(Br)C(N)=O
AC50: inactive

# AC50 of CCCCC(CC)COC(=O)c1ccc(C(=O)OCC(CC)CCCC)c(C(=O)OCC(CC)CCCC)c1 (stereo not drawn) = inactive

Record summary for `CN(C)c1ccccc1` : reported AC50 = inactive

Briefly, AC50 measured for `O=C1CCCO1` : inactive

Lab note: measured AC50 of `O=C(N[C@H](c1ccccc1)[C@@H]1CN2CCC1CC2)c1c(Cl)ccc(C(F)(F)F)c1Cl` was 120 µM (active)

Value of AC50 reported for the compound ClC1=C(Cl)C2(Cl)C3C(Cl)C=CC3C1(Cl)C2(Cl)Cl (stereo not drawn) is 99.2 µM (active)
